The measurements presented in this section are drawn from PubChem BioAssay.

Please go through the items and note down their fluorescence ratio.
assayText: Cy5 fluorescence interference with SSB-bound oligo, artefact control for HCV NS3 helicase inhibitor project, biochemical, NIH Clinical Collection, E. coli SSB (AID 743268)
Simply state the number, no unit and no words.

Reported fluorescence ratio for OC[C@H]1O[C@@H](Oc2cc(O)cc(/C=C/c3ccc(O)cc3)c2)[C@H](O)[C@@H](O)[C@@H]1O : what is it?
1

Given the entry CCCC1O[C@@H]2C[C@H]3[C@@H]4CCC5=CC(=O)C=C[C@]5(C)[C@H]4[C@@H](O)C[C@]3(C)[C@]2(C(=O)CO)O1 (some centres undefined) , report its measured fluorescence ratio.
1.05

Recorded fluorescence ratio of CS(=O)(=O)c1ccc(C2=C(c3ccccc3)C(=O)OC2)cc1 , please.
1.03

Could you share which fluorescence ratio value was measured for COc1ccc2c3c1O[C@H]1C[C@@H](O)C=C[C@@]31CCN(C)C2 ?
1.03

What value of fluorescence ratio has been reported for the following molecule? CC1=C(/C=C/C(C)=C/C=C/C(C)=C\C(=O)O)C(C)(C)CCC1
1.01

Any idea what its fluorescence ratio is? The molecule is CC(C)NCC(O)COc1cccc2[nH]ccc12 (centres undefined)
0.9

// fluorescence ratio lookup, key: CON=C(C(=O)NC1C(=O)N2C(C(=O)O)=C(COC(C)=O)CSC12)c1csc(N)n1 (centres undefined)
1.03

If you can, please state the reported fluorescence ratio value of CC(C)n1c(/C=C/[C@@H](O)C[C@@H](O)CC(=O)O)c(-c2ccc(F)cc2)c2ccccc21 .
1.05

Form field: reported fluorescence ratio of CC(C)(C(=O)O)c1ccc(C(O)CCCN2CCC(C(O)(c3ccccc3)c3ccccc3)CC2)cc1 (centres undefined)
1.07

###

assayText: ovarian cancer cell viability with rucaparib, profiling panel, oncology-focused library, rucaparib conditional (AID 1508598)
conditionDescription: patient-derived ovarian cancer cells, CellTiter-Glo viability, 144 h; at 5 µM; OCI-P5x cells; without rucaparib; stronger effect = lower value
Labelling: viability reported below 50% becomes label 1; at or above becomes label 0.

Just wondering, is viability of CCc1ccc(CCOc2ccc(CC3SC(=O)NC3=O)cc2)nc1 (stereo not given) below 50%?
label 0

Hi there! Is viability for CCN(CC)CCNC(=O)c1c(C)[nH]c(/C=C2\C(=O)Nc3ccc(F)cc32)c1C below 50%, do you know?
label 1

Bench note: check whether Nc1ncn([C@H]2C[C@H](O)[C@@H](CO)O2)c(=O)n1 shows viability below 50%
label 1

API: query returns whether the compound falls strictly under 50% in viability. Query: Clc1ccc(Nc2nnc(Cc3ccncc3)c3ccccc23)cc1
label 0

Does this compound meet the criterion viability < 50%? O=C(NOCC1CC1)c1ccc(F)c(F)c1Nc1ccc(I)cc1Cl
label 0

Confirm or reject: viability of COc1c(C)c2c(c(O)c1C/C=C(\C)CCC(=O)O)C(=O)OC2 lies strictly below 50%
label 1

A record lists CC(C)n1c(/C=C/[C@@H](O)C[C@@H](O)CC(=O)O)c(-c2ccc(F)cc2)c2ccccc21 . Is its viability below 50%?
label 1

Below 50% on viability? Entry Cc1cc(O)c2c(c1)C(=O)c1cccc(O)c1C2=O
label 0

State whether 50% exceeds viability recorded for CN(N=O)C(=O)N[C@@H]1[C@@H](O)[C@H](O)[C@@H](CO)O[C@@H]1O .
label 0

Dear colleague, could you confirm whether viability of CC(C)C[C@H](NC(=O)[C@H](Cc1ccccc1)NC(=O)c1cnccn1)B(O)O falls below 50%? Thanks.
label 1

###

assayText: rescue of polyQ-huntingtin neuronal dysfunction in worms, whole organism, C. elegans mechanosensory neurons, N-terminal huntingtin (AID 1599)
conditionDescription: touch response, stronger effect = higher value
Results with a measured potency or affinity are listed apart.
For each record, write down the corresponding rescue above control.
The reply should be a number, written without any unit.

# input molecule: N[C@H](Cc1ccccc1)C(=O)O ; wanted: its rescue above control
-4.58

Fill blank: measured rescue above control of the molecule O=C1NS(=O)(=O)c2ccccc21 is ____.
-8.57

Which rescue above control value is on record for NCCSSCCN ?
-5.12

// query rescue above control value for entry NC(=O)c1ccc[n+]([C@@H]2O[C@H](COP(=O)([O-])OP(=O)(O)OC[C@H]3O[C@@H](n4cnc5c(N)ncnc54)[C@H](OP(=O)(O)O)[C@@H]3O)[C@@H](O)[C@H]2O)c1
9.74

Reported rescue above control, molecule O=C(CCCN1CCC(O)(c2ccc(Cl)cc2)CC1)c1ccc(F)cc1 : ____
27.6

###

assayText: suppressors of polyglutamine aggregation in yeast, 75Q-TubH (AID 1616)
conditionDescription: S. cerevisiae 75Q-TubH polyglutamine aggregation suppression; stronger effect = higher value
Peptide text beside a SMILES is read from it. * marks the point of attachment. For = O=C*
measure: aggregation suppression score

Item O=C(O)c1cc(=O)c2cccc(O)c2[nH]1 has what recorded aggregation suppression score?
1.12

# input compound: Cc1cc(/C=C/c2ccc3cc(N(C)C)ccc3[n+]2C)c(C)n1-c1ccccc1 ; wanted: its aggregation suppression score
-0.227

// lookup aggregation suppression score for Cc1ccc(O)cc1
1.04

Record request: aggregation suppression score value, item CSCCC(NC=O)C(=O)NC(Cc1ccccc1)C(=O)O (stereo not drawn) (For-Met-Phe-OH; configuration not given here)
0.985

Fill in the blank: the reported aggregation suppression score of CN1CC(=O)N=C1N is ____.
1.7

Requested read-out: aggregation suppression score. Entry: O=c1c(-c2ccc(O)cc2)coc2cc(O)ccc12
1.43

So what does the record say about aggregation suppression score for Nc1ncnc2c1ncn2[C@@H]1O[C@H](CO)[C@@H](O)[C@@H]1O ?
0.666

Can you look up the measured aggregation suppression score of CC12CCC3c4ccc(OCc5ccccc5)cc4CCC3C1C[C@@H](O)[C@@H]2O (some centres not stated) for me?
-0.303

Look up aggregation suppression score: COc1cc(S(C)=O)ccc1-c1nc2ncccc2[nH]1 (configuration not stated)
1.25

Quick one: aggregation suppression score of Cc1cc(NS(=O)(=O)c2ccc(N)cc2)no1 ?
1.36

Name the recorded aggregation suppression score for O=C1C[C@@H](c2ccc(O)cc2)Oc2cc(O)cc(O)c21 .
1.04

So what does the record say about aggregation suppression score for C[N+](C)(C)CCO ?
1.39

###

assayText: growth inhibition of DIPG glioma cells, dose response, cell-based, SU-DIPG-XVII, MIPE5.0, CellTiter-Glo, qHTS (AID 1347060);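 for AC50: cells exposed to compound for 48 hours before viability readout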
conditionDescription: SU-DIPG-XVII viability, CellTiter-Glo ATP luminescence
Results filed as inconclusive are left out. Activity calls are given as the source filed them. No cut-off is given here; in the data, nearly all actives have AC50 up to about 26 µM.
// classify into active, inactive

Please state the recorded outcome for this molecule: CCC(=O)NCC[C@@H]1CCc2ccc3c(c21)CCO3
inactive

Hi, sorry to bother you, what did the test record for CN(C)c1nc(N(C)C)nc(N(C)C)n1 ?
inactive

What call does the record list for CCCc1nn(C)c2c(=O)[nH]c(-c3cc(S(=O)(=O)N4CCN(C)CC4)ccc3OCC)nc12 ?
inactive

Outcome? C[C@H](CCC(=O)O)[C@H]1CC[C@H]2[C@@H]3[C@@H](O)C[C@@H]4C[C@H](O)CC[C@]4(C)[C@H]3CC[C@]12C
inactive

Query: recorded result category for Cc1oc(=O)oc1CN1CCN(c2cc3c(cc2F)c(=O)c(C(=O)O)c2n3C(C)S2)CC1 (configuration not stated) in this test
inactive

So what was the verdict on O=C(NCC1CCCCN1)c1cc(OCC(F)(F)F)ccc1OCC(F)(F)F (configuration not stated) in this test?
inactive

Fill in: this test's call for Nc1ccn(C[C@@H](CO)OCP(=O)(O)O)c(=O)n1 is ___
inactive

Short answer needed: outcome of this test for N#Cc1c(N(CC(=O)O)CC(=O)O)sc(C(=O)O)c1CC(=O)O ?
inactive

Record lookup: outcome of this test for COc1cc2c(c(OC)c1OC)-c1ccc(OC)c(=O)cc1[C@@H](NC(C)=O)CC2 ?
active

Assay result, entry CCOC(=O)C1=C(O)C(=O)N(Cc2ccccc2)C1 — outcome?
inactive

Record lookup: outcome of this test for CN(N=O)C(=O)N[C@@H]1[C@@H](O)[C@H](O)[C@@H](CO)O[C@@H]1O ?
inactive

Per the assay record, what outcome was assigned to O=C(NOCC1CC1)c1ccc(F)c(F)c1Nc1ccc(I)cc1Cl ?
active

###

assayText: sensitizers of A549 cells to miR-34 induction, primary screen, imaging, A549 dox-inducible miR-34, nuclei and caspase counts (AID 1347080)
conditionDescription: A549 miR-34 inducible, Hoechst nuclei count, 48 h; stronger effect = lower value; cell number ratio, induced over uninduced
Give fold change for every item shown.
// return a plain number; no unit text

Which fold change value belongs to CC(=O)c1ccc2c(c1)N(CCCN1CCC(CCO)CC1)c1ccccc1S2 ?
0.911

Reported fold change for COc1c(C)c2c(c(O)c1C/C=C(\C)CCC(=O)OCCN1CCOCC1)C(=O)OC2 : what is it?
0.954

What value of measured fold change is listed for O=C(O)Cc1ccc(-c2ccccc2)cc1 ?
0.915

Can you look up the measured fold change of Nc1c(CC(=O)O)cccc1C(=O)c1ccccc1 for me?
0.914

Could you share which fold change value was measured for COc1ccc(-c2cc(=O)c3c(O)c(OC)c(OC)cc3o2)cc1O ?
1.03

Look at this compound and give its reported fold change. CC(=O)Oc1ccccc1C(=O)Oc1ccccc1C(=O)O
0.938

Which fold change is reported for this compound? CC(C)OC(=O)C(C(=O)OC(C)C)=C1SC=CS1
0.9

Can you share its fold change? I mean this compound: CCCNC(C)(C)COC(=O)c1ccccc1
0.976

Requested read-out: fold change. Entry: O=C(O)[C@H](O)[C@@H](O)[C@H](O[C@@H]1O[C@H](CO)[C@H](O)[C@H](O)[C@H]1O)[C@H](O)CO
0.847

What value of measured fold change is listed for C1CCN2C[C@@H]3C[C@@H](CN4CCCC[C@@H]34)[C@H]2C1 ?
0.853

Given the entry COc1ccc(-c2cc(=S)ss2)cc1 , report its measured fold change.
0.899

Consider the compound shown here: Cc1ccc(Cl)c(OCC(O)CNC(C)(C)C)c1 (stereo not drawn) What is its recorded fold change?
0.861

# input compound: CC(=O)O[C@]1(C(C)=O)CC[C@H]2[C@@H]3C[C@H](C)C4=CC(=O)CC[C@]4(C)[C@H]3CC[C@@]21C ; wanted: its fold change
0.928

Give its fold change value. Item: CC1=C(CC(=O)O)c2cc(F)ccc2/C1=C\c1ccc(S(C)(=O)=O)cc1
0.998

Query (compound): Cc1cccc(C)c1NC(=O)CN1CCN(CCCC(c2ccc(F)cc2)c2ccc(F)cc2)CC1 ; field requested: fold change
0.884

Can you look up the measured fold change of NCCCCN for me?
1.02

Reported fold change, compound CC(=O)[C@H]1CC[C@H]2[C@@H]3C=CC4=CC(=O)CC[C@@]4(C)[C@@H]3CC[C@]12C : ____
0.855

Which value of fold change has been reported for CC(=O)[C@@]1(O)CCC2C3CCC4=CC(=O)CC[C@]4(C)C3CC[C@@]21C (stereo partly drawn) in the records?
0.883

Record request: fold change value, item CC(=O)NCCc1c[nH]c2ccc(O)cc12
1.02

# lookup: fold change of CCOc1ccccc1OCCN[C@H](C)Cc1ccc(OC)c(S(N)(=O)=O)c1
0.868

Form field: reported fold change of CCn1c(=O)c2c(nc(C=Cc3ccc(OC)c(OC)c3)n2C)n(CC)c1=O
0.891

Item NCCNC(=O)c1ccc(Cl)cn1 has what recorded fold change?
0.873

Could you tell me which fold change is on file for CC(=O)N[C@@H](CC(C)C)C(=O)O ?
0.893
